Target: T1, IL10Rα/IL2Rγ receptor (human) (UniProt Q13651)
T1 sequence (looked up) 1: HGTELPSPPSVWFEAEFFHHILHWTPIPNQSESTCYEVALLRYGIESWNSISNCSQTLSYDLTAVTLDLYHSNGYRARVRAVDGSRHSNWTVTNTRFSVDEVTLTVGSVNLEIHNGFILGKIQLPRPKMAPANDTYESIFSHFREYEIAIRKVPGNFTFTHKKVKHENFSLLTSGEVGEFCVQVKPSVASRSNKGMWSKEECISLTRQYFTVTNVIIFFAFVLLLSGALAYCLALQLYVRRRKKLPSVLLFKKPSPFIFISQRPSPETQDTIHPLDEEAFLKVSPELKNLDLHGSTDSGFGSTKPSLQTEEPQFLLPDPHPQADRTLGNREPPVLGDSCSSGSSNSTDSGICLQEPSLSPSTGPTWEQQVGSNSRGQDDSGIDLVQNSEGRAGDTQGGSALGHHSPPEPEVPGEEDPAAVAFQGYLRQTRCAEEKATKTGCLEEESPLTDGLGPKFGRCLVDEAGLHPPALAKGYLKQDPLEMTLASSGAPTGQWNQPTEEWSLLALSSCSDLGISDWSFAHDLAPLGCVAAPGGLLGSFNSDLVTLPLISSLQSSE
T1 sequence (looked up) 2: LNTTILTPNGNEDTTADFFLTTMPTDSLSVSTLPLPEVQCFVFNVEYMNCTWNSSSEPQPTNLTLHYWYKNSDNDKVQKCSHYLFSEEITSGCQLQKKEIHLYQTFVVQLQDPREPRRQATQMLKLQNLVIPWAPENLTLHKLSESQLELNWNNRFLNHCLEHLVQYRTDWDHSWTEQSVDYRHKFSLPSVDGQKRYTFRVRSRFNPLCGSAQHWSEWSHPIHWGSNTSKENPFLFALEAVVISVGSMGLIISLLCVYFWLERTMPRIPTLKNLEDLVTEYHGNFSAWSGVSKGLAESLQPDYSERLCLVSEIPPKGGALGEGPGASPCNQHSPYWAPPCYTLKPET
Assay: cell-based or functional assay
OBSERVABLE: Granzyme B secretion, CD8 T cells, at 0.001 µM (pg/mL)
Give bare numbers, in pg/mL.

As a guide, the following entries are already answered.
hIL10Ra_VHH14 - hIL2Rg_VHH19, No linker, tag his (bispecific antibody, not shown: small tags and cut ends) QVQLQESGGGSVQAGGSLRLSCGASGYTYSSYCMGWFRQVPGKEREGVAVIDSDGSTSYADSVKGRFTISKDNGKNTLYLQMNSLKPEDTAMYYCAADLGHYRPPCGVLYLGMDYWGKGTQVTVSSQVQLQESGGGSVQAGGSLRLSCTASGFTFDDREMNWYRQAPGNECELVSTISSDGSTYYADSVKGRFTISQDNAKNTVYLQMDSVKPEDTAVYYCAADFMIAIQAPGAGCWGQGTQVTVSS	47300
hIL10Ra_VHH14 - hIL2Rg_VHH19, linker GGGSGGGS, tag his (bispecific antibody, not shown: small tags and cut ends) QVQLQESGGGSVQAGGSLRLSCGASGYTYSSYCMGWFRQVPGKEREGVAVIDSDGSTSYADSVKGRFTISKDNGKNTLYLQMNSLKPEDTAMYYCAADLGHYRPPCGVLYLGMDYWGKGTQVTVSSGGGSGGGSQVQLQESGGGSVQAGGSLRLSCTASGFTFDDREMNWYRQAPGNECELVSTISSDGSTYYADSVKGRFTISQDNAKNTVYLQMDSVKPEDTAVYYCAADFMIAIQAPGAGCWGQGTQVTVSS	45500
hIL10Ra_VHH14 - hIL2Rg_VHH19, linker GGGS, tag Fc (bispecific antibody, not shown: a dimerising Fc or GST) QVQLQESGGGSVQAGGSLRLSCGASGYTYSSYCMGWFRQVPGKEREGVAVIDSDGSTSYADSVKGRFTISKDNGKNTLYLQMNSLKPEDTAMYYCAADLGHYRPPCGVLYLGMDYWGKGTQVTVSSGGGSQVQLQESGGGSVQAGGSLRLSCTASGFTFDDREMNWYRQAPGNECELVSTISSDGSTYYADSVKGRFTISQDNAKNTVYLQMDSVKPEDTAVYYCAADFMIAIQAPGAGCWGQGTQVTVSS	60900

Hello, I would appreciate it if you could give Granzyme B secretion, CD8 T cells, at 0.001 µM for each entry below.
1. hIL10Ra_VHH14 - hIL2Rg_VHH19, linker …, tag his (bispecific antibody, not shown: small tags and cut ends) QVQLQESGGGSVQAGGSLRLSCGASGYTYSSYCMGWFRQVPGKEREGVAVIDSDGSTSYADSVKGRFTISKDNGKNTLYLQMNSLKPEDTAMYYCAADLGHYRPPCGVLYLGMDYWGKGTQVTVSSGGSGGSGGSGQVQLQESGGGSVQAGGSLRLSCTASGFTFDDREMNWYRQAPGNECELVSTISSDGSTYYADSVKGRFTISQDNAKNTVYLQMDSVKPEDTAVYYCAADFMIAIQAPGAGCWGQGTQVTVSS
2. hIL10Ra_VHH14 - hIL2Rg_VHH19, linker GS, tag his (bispecific antibody, not shown: small tags and cut ends) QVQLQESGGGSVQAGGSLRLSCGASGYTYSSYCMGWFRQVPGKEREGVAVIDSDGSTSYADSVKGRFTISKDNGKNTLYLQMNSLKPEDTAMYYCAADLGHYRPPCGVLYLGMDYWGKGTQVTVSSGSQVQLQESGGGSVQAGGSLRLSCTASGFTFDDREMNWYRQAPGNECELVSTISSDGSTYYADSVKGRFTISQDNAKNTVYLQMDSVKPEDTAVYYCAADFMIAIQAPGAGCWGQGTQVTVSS
3. hIL10Ra_VHH14 - hIL2Rg_VHH19, linker GGGS, tag his (bispecific antibody, not shown: small tags and cut ends) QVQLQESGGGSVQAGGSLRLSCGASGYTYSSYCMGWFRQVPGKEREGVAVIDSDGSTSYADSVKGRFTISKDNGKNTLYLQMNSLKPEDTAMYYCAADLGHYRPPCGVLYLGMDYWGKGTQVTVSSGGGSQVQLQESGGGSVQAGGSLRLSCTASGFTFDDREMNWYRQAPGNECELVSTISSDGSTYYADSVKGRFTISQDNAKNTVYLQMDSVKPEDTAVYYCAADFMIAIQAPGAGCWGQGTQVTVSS

1. 70600
2. 49400
3. 45600
